- tested on: Human BCMA (human) (UniProt Q02223)
- run description: SPR, IgG immobilised, huBCMA analyte, 37 C
quantity name: Kd (nM)
Reply with just the number (in nM).

Fill blank: measured Kd of the binder L3.PY/L1.PH/H3.TAQ (antibody, V domains shown, IgG) VH: EVQLLESGGGLVQPGGSLRLSCAASGFTFGSYAMTWVRQAPGKGLEWVSAISGSGGNTFYADSVKGRFTISRDNSKNTLYLQMNSLRAEDTAVYYCTRVSPIAAQMDYWGQGTLVTVSS VL: EIVLTQSPGTLSLSPGERATLSCRASQSVSPHYLAWYQQKPGQAPRLLIYGASSRATGIPDRFSGSGSGTDFTLTISRLEPEDFAVYYCQHYPYPPSFTFGQGTKVEIK is ____.
0.59

Follow-up item: L3.PY/L3.KY/H3.YA (antibody, V domains shown, IgG) VH: EVQLLESGGGLVQPGGSLRLSCAASGFTFGSYAMTWVRQAPGKGLEWVSAISGSGGNTFYADSVKGRFTISRDNSKNTLYLQMNSLRAEDTAVYYCARVSPIYAGMDYWGQGTLVTVSS VL: EIVLTQSPGTLSLSPGERATLSCRASQSVSSSYLAWYQQKPGQAPRLLIYGASSRATGIPDRFSGSGSGTDFTLTISRLEPEDFAVYYCKYYPYPPSFTFGQGTKVEIK
0.28

Likewise for L3.PY/L3.KY/H2.YQ (antibody, V domains shown, IgG) VH: EVQLLESGGGLVQPGGSLRLSCAASGFTFGSYAMTWVRQAPGKGLEWVSAISYQGGNTFYADSVKGRFTISRDNSKNTLYLQMNSLRAEDTAVYYCARVSPIASGMDYWGQGTLVTVSS VL: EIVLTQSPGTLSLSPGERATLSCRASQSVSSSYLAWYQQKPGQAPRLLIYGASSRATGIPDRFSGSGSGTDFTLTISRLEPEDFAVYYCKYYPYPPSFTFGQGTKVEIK ?
0.77

What would you report for L3.PY/L1.PH/H3.AE (antibody, V domains shown, IgG) VH: EVQLLESGGGLVQPGGSLRLSCAASGFTFGSYAMTWVRQAPGKGLEWVSAISGSGGNTFYADSVKGRFTISRDNSKNTLYLQMNSLRAEDTAVYYCARVSPIAAEMDYWGQGTLVTVSS VL: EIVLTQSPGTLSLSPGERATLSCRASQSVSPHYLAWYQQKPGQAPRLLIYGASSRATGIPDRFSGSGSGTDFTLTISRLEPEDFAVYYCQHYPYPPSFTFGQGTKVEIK ?
0.36

Entry to check: L3.PY/L3.KF/H2.DY (antibody, V domains shown, IgG) VH: EVQLLESGGGLVQPGGSLRLSCAASGFTFGSYAMTWVRQAPGKGLEWVSAIDYSGGNTFYADSVKGRFTISRDNSKNTLYLQMNSLRAEDTAVYYCARVSPIASGMDYWGQGTLVTVSS VL: EIVLTQSPGTLSLSPGERATLSCRASQSVSSSYLAWYQQKPGQAPRLLIYGASSRATGIPDRFSGSGSGTDFTLTISRLEPEDFAVYYCKFYPYPPSFTFGQGTKVEIK
0.67
